These data points were gathered from the supplement of paper PMC11451515.

The entries below are paired with their reported cell viability.
System: SEM cells
Assay: cell viability relative to DMSO control; higher = less cytotoxic
Conditions: RPMI 5 mM glucose + 10% FBS; 48 h; 15.4 µM
Kindly answer with a numeric value in %, unit omitted.

# molecule, value.unit, measured.value
measured = [
    ("O=C(/C=C/c1ccc(O)cc1)c1ccc(O)cc1O", "%", 79.6),
]

**Q:** What value of measured cell viability is listed for `CNC(=O)CN1CCC(Oc2cc3c(Nc4cccc(Cl)c4F)ncnc3cc2OC)CC1` ?
**A:** 122

**Q:** Cool, now CN(C)C1=C(Br)C=C(C=C1)C\2NC3=C(\C4=C2C(=O)CC(C)(C)C4)C5=CC=CC=C5C=C3 (centres undefined)
**A:** 109

**Q:** Cool, now `CC(C)[C@H](N)C(=O)OCCOC[N]1C=NC2=C1\N=C(N)/NC2=O`
**A:** 98.7

**Q:** Cool, now `CC(C)C[C@H](NC(=O)[C@@H](O)[C@H](N)Cc1ccccc1)C(=O)O`
**A:** 117

**Q:** Cool, now `C[C@]12CC[C@H]3[C@@H](CCC/4=C/C(=O)CC[C@]34C)[C@@H]1CC[C@@H]2OC(=O)CCC5CCCC5`
**A:** 98.8

**Q:** Cool, now `COC1=CC=C2/C3=N/CCN3\C(=N/C2=C1OC)NC(=O)C4=CC=CN=C4`
**A:** 80.6

**Q:** Cool, now Cc1noc(-c2ccc(CSCCC(=O)O)cc2)c1NC(=O)OC(C)c1ccccc1Cl (centres undefined)
**A:** 89.7

**Q:** Cool, now `CN1CCN(CCCN2c3ccccc3Sc3ccc(C(F)(F)F)cc32)CC1`
**A:** 105

###

Tested on: P12-Ichikawa
Experiment: cell viability relative to DMSO control; higher = less cytotoxic
Conditions: RPMI 5 mM glucose + 10% dialyzed FBS; 48 h; 0.569 µM
The entries below are paired with their reported cell viability.
Kindly answer with a numeric value in %, unit omitted.

Known results for molecules:
# input.smiles, tested.target, cell viability [%]
records = [
    ("N[S+](=O)([O-])OC[C@@H]1C[C@@H](n2ccc3c(N[C@H]4CCc5ccccc54)ncnc32)C[C@@H]1O", "P12-Ichikawa", 100),
    ("C1CCN2C[C@H]3C[C@H](\\C=C/4CCCN[C@@H]34)[C@H]2C1", "P12-Ichikawa", 108),
    ("O=C1NC(=O)/C(=C/c2ccc(-c3ccc(F)cc3O)o2)S1", "P12-Ichikawa", 117),
    ("COc1ccc2cc1Oc1ccc(cc1)C[C@H]1c3cc(c(OC)cc3CCN1C)Oc1c(OC)c(OC)cc3c1[C@H](C2)N(C)CC3", "P12-Ichikawa", 105),
]

Now turn to the next molecule.
**Q:** What value of measured cell viability is listed for `OCCn1cc(-c2cnc3nnn(Cc4ccc5ncccc5c4)c3n2)cn1` ?
**A:** 115

###

Tested on: P12-Ichikawa
Experiment: cell viability relative to DMSO control; higher = less cytotoxic
Conditions: RPMI 5 mM glucose + 10% FBS; 48 h; 0.000781 µM
The entries below are paired with their reported cell viability.
Kindly answer with a numeric value in %, unit omitted.

Known results for molecules:
# molecule, value.unit, cell viability
data = [
    ("OC(CN1CCN(c2cccc(Cl)c2)CC1)C(c1ccccc1)c1ccccc1 (stereo not drawn)", "%", 112),
    ("COc1cccc2c1[C@]13CCN(CC4CC4)[C@H](C2)[C@]1(OC)CCC(=O)C3", "%", 94.6),
    ("CON(C)C(=O)N1/N=C(S[C@@]1(CCCN)C2=CC=CC=C2)/C3=CC(=CC=C3F)F", "%", 101),
]

**Q:** What value of measured cell viability is listed for `NC/1=N/C(=O)N(/C=N1)[C@@H]2O[C@H](CO)[C@@H](O)[C@H]2O` ?
**A:** 107

**Q:** Cool, now `CCN(c1ccccc1)c1cc(NC)[n+](C)c(C)n1`
**A:** 112

**Q:** Cool, now `Cc1nc(Nc2n[nH]c3c2CN(C(=O)N[C@H](CN(C)C)c2ccccc2)C3(C)C)c2sccc2n1`
**A:** 82.3

**Q:** Cool, now `COc1cc(C(=O)NS(=O)(=O)c2ccccc2C)ccc1Cc1cn(C)c2ccc(NC(=O)OC3CCCC3)cc12`
**A:** 82.7

**Q:** Cool, now `COc1cc(CNC(=O)CCCC/C=C/C(C)C)ccc1O`
**A:** 104

**Q:** Cool, now `O=C(/C=C/c1ccc(O)cc1)c1ccc(O)cc1O`
**A:** 108

**Q:** Cool, now `C1CCN2C[C@H]3C[C@H](\C=C/4CCCN[C@@H]34)[C@H]2C1`
**A:** 110

**Q:** Cool, now `OC[C@H]1O[C@@H](Oc2cc(O)cc(/C=C/c3ccc(O)cc3)c2)[C@H](O)[C@@H](O)[C@@H]1O`
**A:** 110

**Q:** Cool, now `COC(=O)\C1=C\CCN(C)C1`
**A:** 102

**Q:** Cool, now `C=CCc1ccc(O)c(-c2ccc(O)c(CC=C)c2)c1`
**A:** 109

**Q:** Cool, now CC(C)Cc1ccc(C(C)C(=O)O)cc1 (stereo not drawn)
**A:** 90.4

**Q:** Cool, now `Cc1onc(-c2ccccc2)c1C(=O)N[C@@H]1C(=O)N2[C@@H]1SC(C)(C)[C@@H]2C(=O)[O-].[Na+]`
**A:** 114

**Q:** Cool, now `COc1ncc(-c2ccc3c(Nc4cc(Oc5cc(F)cc(F)c5)cc(C(=O)O)c4)c([S+](=O)([O-])NC4CC4)cnc3c2)c(OC)n1`
**A:** 84

**Q:** Cool, now `NC(=O)c1ncn([C@@H]2O[C@H](CO)[C@@H](O)[C@H]2O)c1O`
**A:** 129

**Q:** Cool, now `C[C@](N)(Cc1ccc(O)c(O)c1)C(=O)O`
**A:** 90.8

**Q:** Cool, now `COc1cc(N2CCC(N(C)C)CC2)ccc1Nc1ncc(Cl)c(Nc2ccccc2P(C)(C)=O)n1`
**A:** 112

**Q:** Cool, now `O=C(Nc1cccnn1)N1CCC(=Cc2cccc(Oc3ccc(C(F)(F)F)cn3)c2)CC1`
**A:** 85

**Q:** Cool, now `C#CCN[C@@H]1CCc2ccccc21.CS(=O)(=O)O`
**A:** 97.6

**Q:** Cool, now `NC(=O)NO`
**A:** 83.7
